All values here come from patent US20250250357A1.

Target: T1, human MSLN-R1-his protein (human, UniProt Q13421 296-390)
T1 construct: Region 1 of human mesothelin, made in HEK293E cells, His-tagged; also called human MSLN-R1 protein; hMSLN-R1-his; not shown: His tag
T1 chain: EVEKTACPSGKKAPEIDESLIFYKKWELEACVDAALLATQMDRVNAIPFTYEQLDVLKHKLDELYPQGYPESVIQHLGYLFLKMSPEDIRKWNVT
Test: ELISA on coated MSLN-R1; antibody 0.001 nM
measured.quantity: OD450

S009-F8-5.15 (antibody, human IgG1, kappa, V domains shown) VH: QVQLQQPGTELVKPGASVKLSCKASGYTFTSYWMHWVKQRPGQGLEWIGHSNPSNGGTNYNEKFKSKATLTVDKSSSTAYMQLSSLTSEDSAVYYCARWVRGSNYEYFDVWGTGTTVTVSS VL: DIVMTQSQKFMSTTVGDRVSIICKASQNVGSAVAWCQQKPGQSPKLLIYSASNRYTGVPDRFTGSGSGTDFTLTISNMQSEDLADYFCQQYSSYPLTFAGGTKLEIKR	0.05 OD450

Next, consider the following binder.
Input line: Item S009-F8-33.12 (antibody, human IgG1, kappa, V domains shown) VH: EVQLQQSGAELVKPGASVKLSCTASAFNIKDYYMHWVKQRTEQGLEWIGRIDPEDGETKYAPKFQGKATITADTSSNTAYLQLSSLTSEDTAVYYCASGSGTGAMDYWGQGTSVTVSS VL: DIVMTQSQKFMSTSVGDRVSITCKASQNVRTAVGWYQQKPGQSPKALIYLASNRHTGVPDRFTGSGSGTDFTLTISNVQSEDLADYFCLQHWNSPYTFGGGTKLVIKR has what recorded OD450?
Output line: 0.11 OD450
